Just for reference, the supplement of paper PMC10307832 is where these values come from.

test system: NCI-H1944; test: relative viability (nuclei count vs DMSO), 5 days (fraction); higher = more cells survive; settings: first compound 0.253 µM
value_type: relative viability

Observe how each entry below is paired with its result.
- COc1nc(C)cnc1NS(=O)(=O)c1cccnc1-c1ccc(-c2nnco2)cc1 [Zibotentan] + N=C(N)NC(=N)NCCc1ccccc1 [Phenformin] (partner 250 µM): 0.181
- O=c1cc(-c2cccc3c2Sc2ccccc2S3)oc(N2CCOCC2)c1 + N=C(N)NC(=N)NCCc1ccccc1 [Phenformin] (partner 250 µM): 0.21

Attention now turns to another entry.
Reported relative viability for O=c1cc(-c2cccc3c2Sc2ccccc2S3)oc(N2CCOCC2)c1 + Nc1ncn([C@H]2C[C@H](O)[C@@H](CO)O2)c(=O)n1 [Decitabine] (partner 2 µM) : what is it?
0.448
